Attribution: PubChem BioAssay (NCI)

tested on: SNB-19 CNS; assay: NCI tumour cell line growth inhibition, 48 h
*1 amine or outer side, *2 acyl side, *3 side chain or, on linkers, in order; H or OH if unused. Where a SMILES comes first, the peptide text is derived from it. [ ]: non-standard residue; d: D form. The star is where a group is joined. ξ: configuration not given here. X53 = CC(C)C[C@H](N[*:1])C1=N[C@H](C(=O)[*:2])CS1; Ile(3ξ) = CCC(C)[C@H](N)C(=O)O; Allyl(1,1-Me2) = C=CC(C)(C)*
Would you mind telling me the reported TGI of each entry?

// TGI value for `Cc1ccc(N=Nc2c(C)nn(-c3ccccc3)c2C)c(Br)c1` : > 100 µM

// TGI value for `CCOc1cc(NC(C)=O)ccc1C(=O)NNS(=O)(=O)c1ccc(Cl)cc1Cl` : > 50 µM

// TGI value for `COc1cc2c(Oc3ccc4[nH]c(C)cc4c3F)ncnc2cc1OCCCN1CCCC1` : 22.2 µM

// TGI value for `OCN(CO)c1ccc2c(c1)Cc1cc(F)ccc1-2` : 44 µM

// TGI value for CC(c1ccccc1)N1C(=O)CSC1=S (centres undefined) : 1.1 µM

// TGI value for `O=C(O)Cc1cc(F)ccc1C(=O)O` : > 100 µM

// TGI value for `COc1cc(C(=O)Nc2cccc3ccccc23)c(Br)c(OC)c1OC` : > 100 µM

// TGI value for CC1(C)OC(C(C)(C)O)C(C(C)(C)O)O1 (centres undefined) : > 100 µM

// TGI value for `O=C(CCC(=O)Nc1ccc(Cl)c(Cl)c1)CC(=O)c1ccc(Cl)cc1` : > 100 µM

// TGI value for C=CC(C)(C)OC[C@@H]1NC(=O)CNC(=O)[C@@H]2CCCN2C(=O)[C@H](C(C)CC)NC(=O)[C@@H]2CSC(=N2)[C@H](CC(C)C)NC1=O (some centres undefined) (cyclo(GS(Allyl(1,1-Me2))[X53][Ile(3ξ)]P)) : > 100 µM

// TGI value for COC(=O)/C(C#N)=C1\CCC(OC)N1 (centres undefined) : > 100 µM

// TGI value for CN(C)c1ccc(C2C(Cl)C(=O)N2NC(=O)c2c(Cl)c(Cl)c(Cl)c(Cl)c2-c2nc3ccccc3[nH]2)cc1 (centres undefined) : 94.3 µM

// TGI value for `COC(=O)C1=C(C(=O)OC)SC2(S1)C1=C(CCC1)SC(C(=O)OC)=C2C(=O)OC` : 36.8 µM

// TGI value for `Cc1cccc(/C=N/NC(=S)Nc2ccc(Cl)cc2)n1` : 22.2 µM

// TGI value for `CCCCN1C=CCN(CCCC)C1` : > 100 µM

// TGI value for `CC(C)(C)c1ccc2c(c1)OP1(Oc3cccc4cccnc34)(O2)Oc2ccc(C(C)(C)C)cc2O1` : > 100 µM

// TGI value for `COc1ccc(Cc2c(N)[nH]c(=O)[nH]c2=O)cc1` : > 100 µM

// TGI value for COc1cc2c(c(OC)c1OC)CCNC2C1=C(O)COC1=O (centres undefined) : > 100 µM

// TGI value for `O=C(O)[C@@H](NS(=O)(=O)c1ccc(F)cc1)c1ccccc1` : > 100 µM

// TGI value for `COc1ccc2nccc(/C=C/c3ccc(N(C)C)cc3)c2c1` : > 10 µM

// TGI value for NC(C/C=C/P(=O)(O)O)C(=O)O (centres undefined) : > 100 µM

// TGI value for `COc1ccccc1-c1cc(=O)c2c(C)cc(C)nc2[nH]1` : > 100 µM

// TGI value for `O=C1CC(=O)c2c(N3CCCC3)sc(N3CCCC3)c21` : > 100 µM

// TGI value for OCc1cc2c([nH]c3ccccc32)c(C(O)CO)n1 (centres undefined) : > 100 µM

// TGI value for `CN1CCN(CCCNN)CC1` : > 100 µM

// TGI value for `O=C1NC(=O)/C(=C/c2ccc3ncccc3c2)S1` : > 25 µM

// TGI value for `COc1cc2c3c(c1Oc1nnnn1-c1ccccc1)-c1c(ccc4c1OCO4)C[C@H]3N(C)CC2` : > 100 µM

// TGI value for `O=S1(=O)OCCOS(=O)(=O)C1(I)I` : 55.3 µM

// TGI value for COC(=O)N/N=C(/CC1(O)C(=O)Nc2ccc([N+](=O)[O-])cc21)c1ccccc1 (centres undefined) : > 100 µM

// TGI value for `CS(=O)(=O)OCOS(C)(=O)=O` : > 100 µM

// TGI value for `COC1=C(C)C(=O)N2[C@@H]1[C@H](c1ccccc1)OC21C=CC(=O)C=C1` : > 100 µM

// TGI value for Cc1cn(CC2=NCC(O)CN2)c(=O)[nH]c1=O (centres undefined) : > 100 µM

// TGI value for C=C(C)[C@@H]1/C=C(/C(C)C)CC[C@@]2(C)OC2CC[C@H](C)CC1=O (some centres undefined) : > 100 µM

// TGI value for `CCOC(=O)c1cc(C(=O)c2cc(OC)cc(OC)c2)n2nc(C)ccc12` : > 100 µM

// TGI value for `Oc1ccc(OCCOc2ccc(O)cc2)cc1` : > 100 µM

// TGI value for `COc1cc(/C=C/[N+](=O)[O-])c([N+](=O)[O-])cc1OC` : 19.8 µM

// TGI value for `CCOC(=O)c1c(Sc2ccc([N+](=O)[O-])cc2[N+](=O)[O-])nc2c3ccccc3ccn12` : > 100 µM

// TGI value for `CC1(C)C(=NNC(=S)NN)C(C)(C)C1=NNC(=S)NN` : > 100 µM

// TGI value for `CN(C)/C=N/S(=O)(=O)c1nn2c(C=O)c(-c3ccccc3)nc2s1` : > 100 µM

// TGI value for `O=[N+]([O-])c1ccc(NC(=S)N=Nc2c(O)[nH]c3ccccc23)cc1` : 36.4 µM

// TGI value for `O=C(C(=O)c1cc(-c2ccccc2)nc2ccc3ccccc3c12)c1ccccc1` : > 100 µM

// TGI value for `COc1cccc(-c2nnc3c(-c4ccccc4)nc4ccccc4n23)c1` : > 100 µM

// TGI value for N#CNC1=NC(Cc2ccccc2)C(=O)N1CCc1c[nH]c2ccccc12 (centres undefined) : > 100 µM

// TGI value for C#CCCOC(=O)CC1=C(C)/C(=C/c2ccc(S(C)=O)cc2)c2ccc(F)cc21 (centres undefined) : 29.6 µM
